# Test system: Pseudomonas aeruginosa
# protocol: Antibacterial activity against carbapenem-resistant Pseudomonas aeruginosa isolate 1E2 PpA1 harboring acquired beta-lactamase OXA-144 by broth microdilution method
# Assay type: functional
property.name: MIC (µg/mL)
Numbers only, in µg/mL.

compound	reported
NC[C@H]1O[C@H](O[C@H]2[C@H](O)[C@@H](O[C@H]3O[C@H](CO)[C@@H](O)[C@H](N)[C@H]3O)[C@H](N)C[C@@H]2N)[C@H](N)C[C@@H]1O [TOBRAMYCIN]	64
CO/N=C(\C(=O)N[C@@H]1C(=O)N2C(C(=O)[O-])=C(C[N+]3(C)CCCC3)CS[C@H]12)c1csc(N)n1	32
NCC[C@H](O)C(=O)N[C@@H]1C[C@H](N)[C@@H](O[C@H]2O[C@H](CN)[C@@H](O)[C@H](O)[C@H]2O)[C@H](O)[C@H]1O[C@H]1O[C@H](CO)[C@@H](O)[C@H](N)[C@H]1O [AMIKACIN]	32
C[C@@H](O)[C@H]1C(=O)N2C(C(=O)O)=C(S[C@@H]3CN[C@H](C(=O)N(C)C)C3)[C@H](C)[C@H]12 [MEROPENEM]	32
Cn1c(N)c(NC(=O)NCCN)c[n+]1CC1=C(C(=O)O)N2C(=O)[C@@H](NC(=O)/C(=N\OC(C)(C)C(=O)[O-])c3nsc(N)n3)[C@H]2SC1 [CEFTOLOZANE]	64

Under Pseudomonas aeruginosa: MIC value of O=C(O)c1cn(C2CC2)c2cc(N3CCNCC3)c(F)cc2c1=O [CIPROFLOXACIN] ?
16

###

# Tested on: Pseudomonas aeruginosa
# protocol: Antibacterial activity against carbapenem-resistant Pseudomonas aeruginosa isolate 1C3 PTOL1 harboring acquired beta-lactamase OXA-17 by broth microdilution method
# Assay type: functional
property.name: MIC (µg/mL)
Answers are plain numbers, in µg/mL.

compound	MIC [µg/mL]
NCC[C@H](O)C(=O)N[C@@H]1C[C@H](N)[C@@H](O[C@H]2O[C@H](CN)[C@@H](O)[C@H](O)[C@H]2O)[C@H](O)[C@H]1O[C@H]1O[C@H](CO)[C@@H](O)[C@H](N)[C@H]1O [AMIKACIN]	32

Attention now shifts to the item below.
Under Pseudomonas aeruginosa: MIC value of Cn1c(N)c(NC(=O)NCCN)c[n+]1CC1=C(C(=O)O)N2C(=O)[C@@H](NC(=O)/C(=N\OC(C)(C)C(=O)[O-])c3nsc(N)n3)[C@H]2SC1 [CEFTOLOZANE] ?
64

###

# Tested on: Pseudomonas aeruginosa
# protocol: Antibacterial activity against carbapenem-resistant Pseudomonas aeruginosa isolate 3C9 GM1 harboring acquired beta-lactamase OXA-144 by broth microdilution method
# Type: functional
property.name: MIC (µg/mL)
One number for each entry, in µg/mL.

compound.structure	unit.of.measurement	MIC
Cn1c(N)c(NC(=O)NCCN)c[n+]1CC1=C(C(=O)O)N2C(=O)[C@@H](NC(=O)/C(=N\OC(C)(C)C(=O)[O-])c3nsc(N)n3)[C@H]2SC1	µg/mL	32

Hey, can you go through the list below and give me MIC for every item?
1. NC[C@H]1O[C@H](O[C@H]2[C@H](O)[C@@H](O[C@H]3O[C@H](CO)[C@@H](O)[C@H](N)[C@H]3O)[C@H](N)C[C@@H]2N)[C@H](N)C[C@@H]1O
2. C[C@@H](O)[C@H]1C(=O)N2C(C(=O)O)=C(S[C@@H]3CN[C@H](C(=O)N(C)C)C3)[C@H](C)[C@H]12
3. CO/N=C(\C(=O)N[C@@H]1C(=O)N2C(C(=O)[O-])=C(C[N+]3(C)CCCC3)CS[C@H]12)c1csc(N)n1
4. CC(C)(O/N=C(\C(=O)N[C@@H]1C(=O)N2C(C(=O)[O-])=C(C[n+]3ccccc3)CS[C@H]12)c1csc(N)n1)C(=O)O
5. NCC[C@H](O)C(=O)N[C@@H]1C[C@H](N)[C@@H](O[C@H]2O[C@H](CN)[C@@H](O)[C@H](O)[C@H]2O)[C@H](O)[C@H]1O[C@H]1O[C@H](CO)[C@@H](O)[C@H](N)[C@H]1O

1: 16; 2: 4; 3: 4; 4: 32; 5: 4

###

# Test system: Pseudomonas aeruginosa
# protocol: Antibacterial activity against carbapenem-resistant Pseudomonas aeruginosa isolate 1D5 SA1 harboring acquired beta-lactamase VIM-2 by broth microdilution method
# Format: functional
Give MIC for every item shown.
Numbers only, in µg/mL.

Solved entries (count: 3):
compound	MIC (µg/mL)
Cn1c(N)c(NC(=O)NCCN)c[n+]1CC1=C(C(=O)O)N2C(=O)[C@@H](NC(=O)/C(=N\OC(C)(C)C(=O)[O-])c3nsc(N)n3)[C@H]2SC1 [CEFTOLOZANE]	64
C[C@@H](O)[C@H]1C(=O)N2C(C(=O)O)=C(S[C@@H]3CN[C@H](C(=O)N(C)C)C3)[C@H](C)[C@H]12 [MEROPENEM]	16
NC[C@H]1O[C@H](O[C@H]2[C@H](O)[C@@H](O[C@H]3O[C@H](CO)[C@@H](O)[C@H](N)[C@H]3O)[C@H](N)C[C@@H]2N)[C@H](N)C[C@@H]1O [TOBRAMYCIN]	64

Hey, can you go through the list below and give me MIC for every item?
1. CO/N=C(\C(=O)N[C@@H]1C(=O)N2C(C(=O)[O-])=C(C[N+]3(C)CCCC3)CS[C@H]12)c1csc(N)n1
2. NCC[C@H](O)C(=O)N[C@@H]1C[C@H](N)[C@@H](O[C@H]2O[C@H](CN)[C@@H](O)[C@H](O)[C@H]2O)[C@H](O)[C@H]1O[C@H]1O[C@H](CO)[C@@H](O)[C@H](N)[C@H]1O [AMIKACIN]
3. CC(C)(O/N=C(\C(=O)N[C@@H]1C(=O)N2C(C(=O)[O-])=C(C[n+]3ccccc3)CS[C@H]12)c1csc(N)n1)C(=O)O [CEFTAZIDIME]

[16, 16, 16]

###

Give MIC for every item shown.
# Test system: Pseudomonas aeruginosa
# protocol: Antibacterial activity against carbapenem-resistant Pseudomonas aeruginosa isolate 3C1 VAL6 by broth microdilution method
# Type: functional
Give bare numbers, in µg/mL.

compound.structure	MIC / µg/mL
NCC[C@H](O)C(=O)N[C@@H]1C[C@H](N)[C@@H](O[C@H]2O[C@H](CN)[C@@H](O)[C@H](O)[C@H]2O)[C@H](O)[C@H]1O[C@H]1O[C@H](CO)[C@@H](O)[C@H](N)[C@H]1O	2
CO/N=C(\C(=O)N[C@@H]1C(=O)N2C(C(=O)[O-])=C(C[N+]3(C)CCCC3)CS[C@H]12)c1csc(N)n1	64
Cn1c(N)c(NC(=O)NCCN)c[n+]1CC1=C(C(=O)O)N2C(=O)[C@@H](NC(=O)/C(=N\OC(C)(C)C(=O)[O-])c3nsc(N)n3)[C@H]2SC1	64

Attention now shifts to the item below.
What value of MIC has been reported for the following molecule? C[C@@H](O)[C@H]1C(=O)N2C(C(=O)O)=C(S[C@@H]3CN[C@H](C(=O)N(C)C)C3)[C@H](C)[C@H]12
4

###

Give MIC for every item shown.
# Test system: Pseudomonas aeruginosa
# protocol: Antibacterial activity against carbapenem-resistant Pseudomonas aeruginosa isolate 3C1 VAL6 by broth microdilution method
# Format: functional

compound	MIC
CC(C)(O/N=C(\C(=O)N[C@@H]1C(=O)N2C(C(=O)[O-])=C(C[n+]3ccccc3)CS[C@H]12)c1csc(N)n1)C(=O)O	> 64 µg/mL
C[C@@H](O)[C@H]1C(=O)N2C(C(=O)O)=C(SCCNC=N)C[C@H]12 [IMIPENEM ANHYDROUS]	> 64 µg/mL

Attention now shifts to the item below.
Under Pseudomonas aeruginosa: MIC value of NC[C@H]1O[C@H](O[C@H]2[C@H](O)[C@@H](O[C@H]3O[C@H](CO)[C@@H](O)[C@H](N)[C@H]3O)[C@H](N)C[C@@H]2N)[C@H](N)C[C@@H]1O ?
< 0.12 µg/mL
